Would you mind telling me the reported inhibition at 110 µM of each entry?
# Test system: C. elegans
# protocol_description: microbe, parasite or virus in culture
# measurement_parameters: Caenorhabditis elegans, 0 h, read-out: Percentage of motility inhibition 0 h, Table S2, C. elegans SS assay, 110 μM, 0 h, averages of 4 data points
Answers are plain numbers, in %.

Recorded results for 2 molecules are shown here.
| substance_smiles | experimental_system | attribute_measured | measured_value |
| --- | --- | --- | --- |
| COc1cnc(NS(=O)(=O)c2ccc(N)cc2)nc1 | C. elegans | inhibition at 110 µM | 25 |
| O=C1Nc2ccccc2C1=O | C. elegans | inhibition at 110 µM | 25 |

Provide reported inhibition at 110 µM for each item, in the same order as listed.
1. O=c1cc(-c2ccc(O)cc2)oc2cc(O)c([C@@H]3O[C@H](CO)[C@@H](O)[C@H](O)[C@H]3O)c(O)c12
2. CC(=O)N[C@H]1[C@H]([C@H](O)[C@H](O)CO)OC(C(=O)O)=C[C@@H]1N=C(N)N

(A)
[11, 22]

###

# System: C. elegans
# measurement_parameters: Table S2, C. elegans SS assay, 110 μM, 0 h, averages of 4 data points
attribute_measured: Percentage of motility inhibition 0 h (%)
Numbers only, in %.

Provide reported Percentage of motility inhibition 0 h for each item, in the same order as listed.
1. O=c1cc(-c2ccc(O)c(O)c2)oc2cc(O)cc(O[C@@H]3O[C@H](CO)[C@@H](O)[C@H](O)[C@H]3O)c12 [Luteolin 5‐O‐glucoside]
2. O=Cc1ccc(O[C@@H]2O[C@H](CO)[C@@H](O)[C@@H](O)[C@H]2O)cc1
3. CCOC(=O)C1=C[C@@H](OC(CC)CC)[C@H](NC(C)=O)[C@@H](N)C1.O=P(O)(O)O [Oseltamivir ( phosphate)]
4. COc1cc(O)cc(O)c1C(=O)/C=C/c1ccccc1 [Cardamonin]

(A)
[8, 11, 0, 0]

###

# Test system: C. elegans
# protocol_description: microbe, parasite or virus in culture
# measurement_parameters: Caenorhabditis elegans, 24 h, read-out: Percentage of motility inhibition 24 h, Table S2, C. elegans SS assay, 110 μM, 24 h, averages of 4 data points
// no (0) strictly below 6% in inhibition at 110 µM; yes (1) otherwise

As a guide, the following entries are already answered.
| compound | experimental_system | assigned_label |
| --- | --- | --- |
| C[C@@]12C[C@@]3(O)O[C@@H](O1)[C@]1(COC(=O)c4ccccc4)[C@H]3C[C@@]12O[C@@H]1O[C@H](CO)[C@@H](O)[C@H](O)[C@H]1O | C. elegans | yes (1) |
| CC(=O)OC[C@]12[C@H](OC(C)=O)[C@H](OC(C)=O)[C@@H]3[C@@H](OC(C)=O)[C@@]14O[C@@]3(C)COC(=O)c1cccnc1CCC(C)C(=O)O[C@@H]([C@H](OC(=O)c1ccccc1)[C@@H]2OC(C)=O)[C@]4(C)O (stereo partly shown) | C. elegans | yes (1) |
| [H]/N=C(/N)NS(=O)(=O)c1ccc(N)cc1 | C. elegans | yes (1) |
| COc1ccc(-c2cc(=O)c3c(O)cc(O)c(-c4cc(-c5cc(=O)c6c(O)cc(O)cc6o5)ccc4OC)c3o2)cc1 | C. elegans | yes (1) |
| C=C1C/C(=C/C)C(=O)O[C@@H]2CCN3CC=C(COC(=O)[C@]1(C)O)[C@H]23 | C. elegans | no (0) |

(Q) Can `CC(C)=CCC[C@H](C(=O)O)[C@H]1CC[C@]2(C)C3=C(CC[C@@]12C)[C@@]1(C)CCC(=O)C(C)(C)[C@H]1CC3` be said to have inhibition at 110 µM at or above 6%?
(A) yes (1)

(Q) Can `C=C[C@H]1C[N@@]2CC[C@H]1C[C@@H]2[C@@H](O)c1ccnc2ccccc12` be said to have inhibition at 110 µM at or above 6%?
(A) no (0)

(Q) Can COc1cc(O)c2c(=O)cc(-c3ccc(O)c(OC)c3)oc2c1 [Velutin] be said to have inhibition at 110 µM at or above 6%?
(A) yes (1)

(Q) Can CC(C)=CC/C=C(\C)[C@H]1CC[C@]2(C)[C@@H]1[C@H](O)C[C@@H]1[C@@]3(C)CC[C@H](O[C@@H]4O[C@H](CO)[C@@H](O)[C@H](O)[C@H]4O[C@@H]4O[C@H](CO)[C@@H](O)[C@H](O)[C@H]4O)C(C)(C)[C@@H]3CC[C@]12C [Ginsenoside Rg5] be said to have inhibition at 110 µM at or above 6%?
(A) no (0)

###

# Test system: C. elegans
# measurement_parameters: Table S2, C. elegans SS assay, 110 μM, 0 h, averages of 4 data points
attribute_measured: Percentage of motility inhibition 0 h (%)
Numbers only, in %.

| compound | measured_value |
| --- | --- |
| Cl.c1ccc(CC2=NCCN2)cc1 [Tolazoline (hydrochloride)] | 21 |

Provide reported Percentage of motility inhibition 0 h for each item, in the same order as listed.
1. C[C@@H]1O[C@@H]1P(=O)([O-])[O-].[Ca+2] [Fosfomycin (calcium)]
2. CC(C)(C)NC(=O)[C@@H]1CN(Cc2cccnc2)CCN1C[C@@H](O)C[C@@H](Cc1ccccc1)C(=O)N[C@H]1c2ccccc2C[C@H]1O.O=S(=O)(O)O [Indinavir (sulfate)]
3. CCCCCCCCCCCCCc1cc(=O)c2ccccc2n1C [Dihydroevocarpine]

(A)
4
8
3

###

# System: C. elegans
# protocol_description: microbe, parasite or virus in culture
# measurement_parameters: Caenorhabditis elegans, 24 h, read-out: Percentage of motility inhibition 24 h, Table S2, C. elegans SS assay, 110 μM, 24 h, averages of 4 data points
attribute_measured: inhibition at 110 µM (%)
Numbers only, in %.

| compound | inhibition at 110 µM, % |
| --- | --- |
| O=C(O)[C@H]1O[C@@H](Oc2cc3oc(-c4ccc(O)cc4)cc(=O)c3c(O)c2O)[C@H](O)[C@@H](O)[C@@H]1O | 1 |
| C=CCc1ccc(O)c(-c2cc(CC=C)ccc2O)c1 | 14 |
| CC[C@@H](C(=O)[C@@H](C)[C@@H](O)[C@H](C)[C@@H]1O[C@@H]([C@@H](CC)C(=O)O)CC[C@@H]1C)[C@H]1O[C@]2(C=C[C@@H](O)[C@]3(CC[C@@](C)([C@H]4CC[C@](O)(CC)[C@H](C)O4)O3)O2)[C@H](C)C[C@@H]1C [Salinomycin, reference compound] | 93 |
| CC[C@H]1OC(=O)[C@H](C)[C@@H](O[C@H]2C[C@@](C)(OC)[C@@H](O)[C@H](C)O2)[C@H](C)[C@@H](O[C@@H]2O[C@H](C)C[C@H](N(C)C)[C@H]2O)[C@](C)(O)C[C@@H](C)C(=O)[C@H](C)[C@@H](O)[C@]1(C)O | 5 |
| CCc1nc(N)nc(N)c1-c1ccc(Cl)cc1 | 2 |
| O=C(Nc1ncc([N+](=O)[O-])s1)c1ccccc1O [Tizoxanide] | 53 |

Now for another entry.
(Q) Give its inhibition at 110 µM value. Item: C=CC1(C)Cc2occ(C)c2C(=O)C1C(=C)C (stereo not shown)
(A) 9

###

Would you mind telling me the reported inhibition at 110 µM of each entry?
# System: C. elegans
# protocol_description: microbe, parasite or virus in culture
# measurement_parameters: Caenorhabditis elegans, 0 h, read-out: Percentage of motility inhibition 0 h, Table S2, C. elegans SS assay, 110 μM, 0 h, averages of 4 data points
Structures can show the parent of a compound that is named as a salt.
One number for each entry, in %.

| compound | inhibition at 110 µM (%) |
| --- | --- |
| C/C(=C\C(=O)OCCCCCCCCC(=O)O)C[C@@H]1OC[C@H](C[C@@H]2O[C@H]2[C@@H](C)[C@H](C)O)[C@@H](O)[C@H]1O | 10 |
| Cn1c(=O)c2c(ncn2CC(=O)O)n(C)c1=O | 0 |
| OC[C@@H](O)[C@H](O)[C@@H](O)CO | 22 |
| C=C1C=CC(C(C)C)CC1 (stereo not drawn) | 17 |
| O=C1C=CC(=O)N1 [Maleimide] | 25 |
| C=C(CC[C@@H](C(=O)O)[C@H]1CC[C@@]2(C)C3=C(CC[C@]12C)[C@@]1(C)CC[C@H](O)C(C)(C)[C@@H]1CC3)C(C)C | 27 |
| O=C(O)C1=CCCNC1 [Guvacine hydrochloride] | 0 |
| Nc1ccn([C@@H]2O[C@H](CO)[C@@H](O)[C@H]2O)c(=O)n1 | 12 |
| O=c1ncnc2n([C@H]3O[C@@H](CO)[C@H](O)[C@@H]3O)[nH]cc1-2 (stereo in doubt) [Allopurinol riboside] | 0 |
| COc1c2occc2cc2ccc(=O)oc12 | 23 |

Provide reported inhibition at 110 µM for each item, in the same order as listed.
1. CC(C)(C)CC(C)(C)c1ccc(O)c(Cc2ccc(Cl)cc2Cl)c1
2. COC(=O)C[C@](O)(CCCC(C)(C)O)C(=O)O[C@@H]1C(OC)=C[C@]23CCCN2CCc2cc4c(cc2[C@H]13)OCO4

(A)
[37, 20]
